Readings of IC50 for the listed molecules
TESTED ON: human Cav2.2 (Homo sapiens)
ASSAY METHOD TEXT: Assessment of calcium channel activity using FLIPR (Ca2+ influx in IMR32 cells)
CONDITION DETAILS: IMR32 cells endogenously expressing human Cav2.2; 60 minute pre-incubation; 2 μM nifedipine; depolarized with 80 mM KCl, 5 mM CaCl2

- MOLECULE: "O=C(CN1CCC(c2ccccc2)(c2ccccc2)C1=O)N1CCC[C@H]2CN(C(c3ccccc3)c3ccccc3)C[C@H]21 [Example 50]"
  IC50, nM: 2620
- MOLECULE: "COc1ccccc1N1CCN(CCCN2CCCC(c3ccc(F)cc3)(c3ccc(F)cc3)C2=O)CC1 [Example 138]"
  IC50, nM: 1420
- MOLECULE: "O=C(CN1CCCC(c2ccccc2)(c2ccccc2)C1=O)N1CCN(Cc2ccc(F)c(C(F)(F)F)c2)CC1 [Example 184]"
  IC50, nM: 1270

###

Readings of pIC50 for the listed molecules
TESTED ON: human Cav2.2 (Homo sapiens, UniProt Q00975)
Sequence (Q00975 whole entry): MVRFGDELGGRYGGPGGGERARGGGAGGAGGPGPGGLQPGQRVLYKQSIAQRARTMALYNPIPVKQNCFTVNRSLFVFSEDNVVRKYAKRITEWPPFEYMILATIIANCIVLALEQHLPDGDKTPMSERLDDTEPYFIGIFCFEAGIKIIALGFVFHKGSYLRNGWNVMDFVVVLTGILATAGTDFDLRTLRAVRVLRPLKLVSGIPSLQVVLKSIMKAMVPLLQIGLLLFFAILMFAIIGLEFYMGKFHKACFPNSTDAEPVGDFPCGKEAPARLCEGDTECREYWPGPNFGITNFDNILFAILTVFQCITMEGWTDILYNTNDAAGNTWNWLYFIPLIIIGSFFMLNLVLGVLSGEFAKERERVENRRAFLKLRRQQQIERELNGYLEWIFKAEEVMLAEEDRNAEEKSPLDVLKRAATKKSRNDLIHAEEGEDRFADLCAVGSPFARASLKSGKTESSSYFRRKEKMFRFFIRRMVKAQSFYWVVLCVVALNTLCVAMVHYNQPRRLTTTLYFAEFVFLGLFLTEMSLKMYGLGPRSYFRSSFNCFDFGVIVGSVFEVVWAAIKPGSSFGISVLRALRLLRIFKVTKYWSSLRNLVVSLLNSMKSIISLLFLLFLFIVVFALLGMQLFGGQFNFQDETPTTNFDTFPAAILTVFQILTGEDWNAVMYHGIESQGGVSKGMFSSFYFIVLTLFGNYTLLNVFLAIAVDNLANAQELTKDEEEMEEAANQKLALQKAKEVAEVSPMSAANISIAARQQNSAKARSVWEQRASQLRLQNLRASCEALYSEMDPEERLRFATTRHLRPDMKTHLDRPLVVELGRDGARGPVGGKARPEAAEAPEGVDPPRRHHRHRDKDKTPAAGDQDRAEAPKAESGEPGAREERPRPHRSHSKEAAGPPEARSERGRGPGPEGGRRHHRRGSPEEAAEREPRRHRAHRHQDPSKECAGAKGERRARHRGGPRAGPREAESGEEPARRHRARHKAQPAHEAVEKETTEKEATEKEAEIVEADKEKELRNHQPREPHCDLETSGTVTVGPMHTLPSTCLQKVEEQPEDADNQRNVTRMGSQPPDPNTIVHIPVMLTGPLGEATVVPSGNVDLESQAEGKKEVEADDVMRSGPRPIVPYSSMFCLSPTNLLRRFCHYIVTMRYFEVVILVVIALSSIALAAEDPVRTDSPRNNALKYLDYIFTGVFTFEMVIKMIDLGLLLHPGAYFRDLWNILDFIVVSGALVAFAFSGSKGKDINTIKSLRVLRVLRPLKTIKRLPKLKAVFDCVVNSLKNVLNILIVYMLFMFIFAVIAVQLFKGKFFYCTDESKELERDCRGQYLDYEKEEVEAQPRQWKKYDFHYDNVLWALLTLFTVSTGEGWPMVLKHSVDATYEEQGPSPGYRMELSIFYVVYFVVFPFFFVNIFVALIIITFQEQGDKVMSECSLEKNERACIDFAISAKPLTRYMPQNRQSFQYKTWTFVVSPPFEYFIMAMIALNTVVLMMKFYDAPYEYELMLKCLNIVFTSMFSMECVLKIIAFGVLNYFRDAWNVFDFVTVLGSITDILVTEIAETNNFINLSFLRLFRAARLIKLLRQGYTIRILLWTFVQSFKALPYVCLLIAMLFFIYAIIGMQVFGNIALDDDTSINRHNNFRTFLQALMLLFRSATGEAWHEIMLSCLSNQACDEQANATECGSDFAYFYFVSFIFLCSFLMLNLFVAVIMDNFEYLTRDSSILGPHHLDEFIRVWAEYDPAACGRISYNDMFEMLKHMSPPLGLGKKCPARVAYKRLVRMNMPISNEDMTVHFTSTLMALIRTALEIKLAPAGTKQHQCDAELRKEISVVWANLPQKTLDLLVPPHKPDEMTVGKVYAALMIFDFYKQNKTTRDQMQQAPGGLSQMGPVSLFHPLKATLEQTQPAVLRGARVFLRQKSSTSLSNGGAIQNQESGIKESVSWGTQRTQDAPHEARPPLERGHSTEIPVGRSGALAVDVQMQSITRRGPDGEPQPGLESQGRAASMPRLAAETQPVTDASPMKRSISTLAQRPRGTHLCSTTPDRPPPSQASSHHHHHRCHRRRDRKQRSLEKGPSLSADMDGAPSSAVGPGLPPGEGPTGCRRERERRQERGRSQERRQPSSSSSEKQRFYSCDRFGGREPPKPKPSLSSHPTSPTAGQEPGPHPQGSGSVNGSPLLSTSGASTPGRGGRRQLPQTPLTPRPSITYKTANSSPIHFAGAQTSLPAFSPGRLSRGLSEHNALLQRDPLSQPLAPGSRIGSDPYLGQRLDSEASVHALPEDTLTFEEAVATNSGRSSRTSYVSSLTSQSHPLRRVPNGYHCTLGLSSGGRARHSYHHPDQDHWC
Sequence (P54289 25-951 partner limits assumed): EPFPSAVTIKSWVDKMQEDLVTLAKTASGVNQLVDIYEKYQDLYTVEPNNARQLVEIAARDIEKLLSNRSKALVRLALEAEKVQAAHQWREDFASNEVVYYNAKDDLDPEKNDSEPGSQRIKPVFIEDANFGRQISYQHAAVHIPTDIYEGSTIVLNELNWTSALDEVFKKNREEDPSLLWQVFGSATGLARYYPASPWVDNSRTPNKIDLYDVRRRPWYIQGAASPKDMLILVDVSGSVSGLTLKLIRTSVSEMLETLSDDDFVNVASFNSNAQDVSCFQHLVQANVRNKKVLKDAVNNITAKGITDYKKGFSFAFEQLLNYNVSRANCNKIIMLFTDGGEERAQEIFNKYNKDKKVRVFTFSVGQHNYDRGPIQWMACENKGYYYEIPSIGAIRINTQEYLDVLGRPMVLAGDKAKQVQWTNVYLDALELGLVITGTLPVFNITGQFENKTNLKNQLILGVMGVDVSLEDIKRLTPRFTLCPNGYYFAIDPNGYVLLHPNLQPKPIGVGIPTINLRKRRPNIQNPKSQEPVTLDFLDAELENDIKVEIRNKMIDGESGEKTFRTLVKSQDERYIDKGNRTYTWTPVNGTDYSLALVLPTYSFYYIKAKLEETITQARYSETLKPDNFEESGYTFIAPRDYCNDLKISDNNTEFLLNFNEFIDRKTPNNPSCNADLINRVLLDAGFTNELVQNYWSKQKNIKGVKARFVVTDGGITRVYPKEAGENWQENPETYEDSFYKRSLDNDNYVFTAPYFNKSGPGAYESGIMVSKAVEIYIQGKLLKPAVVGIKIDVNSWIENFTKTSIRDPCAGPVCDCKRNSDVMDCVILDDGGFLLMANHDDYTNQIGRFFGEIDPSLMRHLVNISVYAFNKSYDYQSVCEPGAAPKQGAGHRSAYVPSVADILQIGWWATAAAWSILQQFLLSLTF
Sequence (P54289 952-1103 partner limits assumed): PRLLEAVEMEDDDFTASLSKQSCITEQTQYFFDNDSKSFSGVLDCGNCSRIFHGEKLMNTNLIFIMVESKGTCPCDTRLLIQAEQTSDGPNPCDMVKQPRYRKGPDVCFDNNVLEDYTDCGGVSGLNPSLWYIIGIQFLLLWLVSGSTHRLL
Sequence (P54284 whole entry partner): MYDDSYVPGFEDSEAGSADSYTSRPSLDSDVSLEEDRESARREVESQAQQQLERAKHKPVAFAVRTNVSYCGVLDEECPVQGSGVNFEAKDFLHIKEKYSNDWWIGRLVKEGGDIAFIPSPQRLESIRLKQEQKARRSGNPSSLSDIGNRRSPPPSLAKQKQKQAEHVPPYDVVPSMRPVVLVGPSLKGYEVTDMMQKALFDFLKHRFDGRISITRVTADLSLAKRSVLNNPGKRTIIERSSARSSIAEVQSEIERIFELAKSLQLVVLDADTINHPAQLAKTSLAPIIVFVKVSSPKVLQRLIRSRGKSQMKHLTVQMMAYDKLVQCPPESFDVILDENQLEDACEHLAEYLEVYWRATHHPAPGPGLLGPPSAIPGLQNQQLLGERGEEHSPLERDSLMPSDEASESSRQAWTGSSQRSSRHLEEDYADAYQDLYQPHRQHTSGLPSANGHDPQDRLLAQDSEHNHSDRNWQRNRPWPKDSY
ASSAY METHOD TEXT: Assessment of calcium channel activity using FLIPR (Ca2+ influx in IMR32 cells)
CONDITION DETAILS: IMR32 cells endogenously expressing human Cav2.2; 60 minute pre-incubation; 2 μM nifedipine; depolarized with 80 mM KCl, 5 mM CaCl2
pIC50: −log10 of the molar value.

- MOLECULE: "CC(C)(C)OC(=O)Nc1ccc(-c2noc(CN3CCC(c4ccccc4)(c4ccccc4)C3=O)n2)cn1 [Example 231]"
  OP: "<"
  pIC50: 4.52
- MOLECULE: "CC(C)(C)c1ccc(-c2noc(CN3CCC(c4ccccc4)(c4ccccc4)C3=O)n2)cc1 [Example 202]"
  OP: "="
  pIC50: 4.98
- MOLECULE: "O=C(CN1CCC(c2ccccc2)(c2ccccc2)C1=O)N1CCC(C(O)(c2cccc(C(F)(F)F)c2)c2cccc(C(F)(F)F)c2)CC1 [Example 33]"
  OP: "="
  pIC50: 5.12
- MOLECULE: "O=C(CN1CCCC(c2ccccc2)(c2ccccc2)C1=O)NC1CCN(Cc2ccc(F)c(C(F)(F)F)c2)CC1 [Example 183]"
  OP: "="
  pIC50: 6.02

###

TESTED ON: UniProt:Q00975
ASSAY METHOD TEXT: Assessment of calcium channel activity using FLIPR (Ca2+ influx in IMR32 cells)
CONDITION DETAILS: IMR32 cells endogenously expressing human Cav2.2; 60 minute pre-incubation; 2 μM nifedipine; depolarized with 80 mM KCl, 5 mM CaCl2
Bucketed by reported IC50, buckets being low interval (below 2 µM), middle interval (2 µM to below 5 µM), high interval (5 µM or more)

- COMPOUND: "O=C(CN1CCCC(c2ccccc2)C1=O)N1CCN(Cc2ccc(Cl)cc2Cl)CC1 (stereo not drawn) [Example 94]"
  ASSIGNED CLASS: "middle interval"
- COMPOUND: "O=C1C(c2ccccc2)CCCN1Cc1nc(-c2ccc(C(F)(F)F)cc2)no1 (stereo not drawn) [Example 181]"
  ASSIGNED CLASS: "middle interval"
- COMPOUND: "O=C(CN1CCC(c2ccc(F)cc2)(c2ccc(F)cc2)C1=O)N1CCN(C(c2ccccc2)c2ccccc2)CC1 [Example 58]"
  ASSIGNED CLASS: "low interval"
- COMPOUND: "N#Cc1ccc(NC(=O)CN2CCC(c3ccccc3)(c3ccccc3)C2=O)nc1 [Example 251]"
  ASSIGNED CLASS: "high interval"
- COMPOUND: "O=C(CN1CCC(c2ccccc2)(c2ccccc2)C1=O)NCc1ccccc1 [Example 6]"
  ASSIGNED CLASS: "high interval"
- COMPOUND: "O=C(CN1CCC(c2ccccc2)(c2ccccc2)C1=O)N1CCC(C(c2ccccc2)c2ccccc2)CC1 [Example 30]"
  ASSIGNED CLASS: "low interval"
- COMPOUND: "O=C1N(Cc2nc(-c3ccc4[nH]ncc4c3)no2)CCCC1(c1ccccc1)c1ccccc1 [Example 154]"
  ASSIGNED CLASS: "high interval"
- COMPOUND: "O=C(CN1CCCC(c2ccccc2)(c2ccccc2)C1=O)N1CCC(c2ccc(C(F)(F)F)cc2)CC1 [Example 245]"
  ASSIGNED CLASS: "middle interval"
